- assayed target: UniProtKB Q9NWZ3
- assay overview: IRAK4 Biochemical HTRF Kinase Assay
- experimental setup: Table 4; read-out: IRAK4 HTRF biochemical: IC50
- Sequence (Q9NWZ3 whole entry, species assumed): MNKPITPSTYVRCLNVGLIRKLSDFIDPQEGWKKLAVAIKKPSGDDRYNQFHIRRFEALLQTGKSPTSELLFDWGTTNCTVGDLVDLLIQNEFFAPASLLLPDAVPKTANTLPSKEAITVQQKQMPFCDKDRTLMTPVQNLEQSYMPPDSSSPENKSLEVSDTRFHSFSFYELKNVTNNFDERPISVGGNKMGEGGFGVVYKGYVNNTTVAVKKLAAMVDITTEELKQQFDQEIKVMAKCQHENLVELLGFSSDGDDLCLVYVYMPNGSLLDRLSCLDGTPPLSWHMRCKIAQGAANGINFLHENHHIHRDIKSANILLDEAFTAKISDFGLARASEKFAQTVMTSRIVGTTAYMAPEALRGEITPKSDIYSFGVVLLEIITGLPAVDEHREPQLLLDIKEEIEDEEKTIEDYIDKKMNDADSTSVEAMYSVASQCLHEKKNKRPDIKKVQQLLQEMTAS
metric name: IC50 (nM)
Hi! Could you send only the number? It should be in nM, unit omitted.

CC(C)Nc1cc(-c2ccc3cc(C#N)cnn23)ncc1-c1nnc(N2CCN(C3CCN(Cc4ccc5c(c4)C(=O)N(C4CCC(=O)NC4=O)C5=O)CC3)CC2)s1 (stereo not drawn) [Example 18]: 1.9

Query block: Dear colleague, I am looking for the recorded IC50 of the following compound: Cc1ncsc1-c1ccc(CNC(=O)[C@@H]2C[C@@H](O)CN2C(=O)C(NC(=O)[C@H]2CC[C@H](C(=O)N3CCN(c4nnc(-c5cnc(-c6ccc7cc(C#N)cnn67)cc5NC(C)C)s4)CC3)CC2)C(C)(C)C)cc1 (stereo partly drawn) [Example 45]
Result block: 19

Query block: Same lookup for CC(C)Nc1cc(-c2ccc3cc(C#N)cnn23)ncc1-c1nnc(N2CCN(CCCCc3cccc4c3CN(C3CCC(=O)NC3=O)C4=O)CC2)s1 (stereo not drawn) [Example 28] , please.
Result block: 0.4

Query block: Now the same for Cc1ncsc1-c1ccc([C@H](C)NC(=O)[C@@H]2C[C@@H](O)CN2C(=O)[C@@H](NC(=O)CCCCCCCC(=O)N2CCN(c3nnc(-c4cnc(-c5ccc6cc(C#N)cnn56)cc4NC(C)C)s3)CC2)C(C)(C)C)cc1 [Example 36]
Result block: 13.4

Query block: Param item: CNc1cc(-c2ccc3cc(C#N)cnn23)ncc1-c1nnc([C@H]2CC[C@H](NC(=O)[C@H]3C[C@@H](OCCNc4cccc5c4C(=O)N(C4CCC(=O)NC4=O)C5=O)C3)CC2)s1 (stereo partly drawn) [Example 69]
Result block: 0.81

Query block: Also Cc1ncsc1-c1ccc(CNC(=O)[C@@H]2C[C@@H](O)CN2C(=O)[C@@H](NC(=O)C2(F)CC2)C(C)(C)C)c(OCCOCCOCCOCCOCCOCCC(=O)N2CCN(c3nnc(-c4cnc(-c5ccc6cc(C#N)cnn56)cc4NC(C)C)s3)CC2)c1 [Example 48] , if possible.
Result block: 4

Query block: Would you mind doing CC(C)Nc1cc(-c2ccc3cc(C#N)cnn23)ncc1-c1nnc(N2CCN(C(=O)C3CCN(CC4CCN(c5ccc(-c6nn(C7CCC(=O)NC7=O)c(=O)n6C)cc5)CC4)CC3)CC2)s1 (stereo not drawn) [Example 24] as well?
Result block: 0.6

Query block: Now consider Cc1ncsc1-c1ccc([C@H](C)NC(=O)[C@@H]2C[C@@H](O)CN2C(=O)[C@@H](NC(=O)CCOCCOCCOCCOCCOCCC(=O)N2CCN(c3nnc(-c4cnc(-c5ccc6cc(C#N)cnn56)cc4NC(C)C)s3)CC2)C(C)(C)C)cc1 [Example 41] .
Result block: 1.3

Query block: Same again, this time with CN[C@@H](C)C(=O)N[C@H](C(=O)N1C[C@@H](NC(=O)CCOCCC(=O)N2CCN(c3nnc(-c4cnc(-c5ccc6cc(C#N)cnn56)cc4NC(C)C)s3)CC2)C[C@H]1C(=O)N[C@@H]1CCCc2ccccc21)C1CCCCC1 [Example 54]
Result block: 0.6

====

- assayed target: IRAK4 (Homo sapiens (Human), UniProt Q9NWZ3)
- assay overview: IRAK4 Degradation HiBiT Assay
- experimental setup: read-out: Cellular IRAK4 HiBiT: DC50; Table 5; multiple runs; HiBiT-tagged Jurkat cells, 4 hrs
- Sequence (Q9NWZ3 whole entry): as the sequence (Q9NWZ3 whole entry, species assumed) above
Collected DC50 values appear next to each entry.
Respond with the bare value in nM.

CC(C)Nc1cc(-c2ccc3cc(C#N)cnn23)ncc1-c1nnc(N2CCN(C(=O)CCCCCCCNc3ccc4c(c3)C(=O)N(C3CCC(=O)NC3=O)C4=O)CC2)s1 (centres unmarked): 71.2
CNc1cc(-c2ccc3cc(C#N)cnn23)ncc1-c1nnc(N2CCN(C3CCN(C(=O)c4ccc5c(c4)C(=O)N(C4CCC(=O)NC4=O)C5)CC3)CC2)s1 (centres unmarked): 3.59
CN[C@@H](C)C(=O)N[C@H](C(=O)N1C[C@@H](NC(=O)CCCCCCCCCCC(=O)N2CCN(c3nnc(-c4cnc(-c5ccc6cc(C#N)cnn56)cc4NC(C)C)s3)CC2)C[C@H]1C(=O)N[C@@H]1CCCc2ccccc21)C1CCCCC1: 8750
CNc1cc(-c2ccc3cc(C#N)cnn23)ncc1-c1nnc([C@H]2CC[C@H](NC(=O)CCCCCOc3cc(-c4scnc4C)ccc3CNC(=O)[C@@H]3C[C@@H](O)CN3C(=O)[C@@H](NC(=O)C3(F)CC3)C(C)(C)C)CC2)s1: 111

Query block: // lookup DC50 for CNc1cc(-c2ccc3cc(C#N)cnn23)ncc1-c1nnc(C23CCC(NC(=O)CN4CCN(c5ccc6c(c5)C(=O)N(C5CCC(=O)NC5=O)C6=O)CC4)(CC2)CC3)s1 (centres unmarked)
Result block: 39.8
